FYI, the data here is from PubChem BioAssay AID449762.

Test system: M. tuberculosis H37Rv growth inhibition, 7H9 media
test.description: M. tuberculosis growth inhibition, HTS (AID 449762);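 further: bacterial growth assessed after seven days of incubation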
condition.context: measured here: IC90 growth inhibition
Records with an inconclusive call do not appear.

smiles.str	IC90
O=[N+]([O-])c1ccc(COc2ccc(-c3[nH]ncc3-c3ccc(Cl)cc3)c(O)c2)cc1	> 100 µM
COc1ccc(-c2cc3ccccc3oc2=O)cc1NC(=O)c1ccc([N+](=O)[O-])o1	> 100 µM
Cc1ccc2nc3c(cc(C(=O)NCc4ccco4)c(=N)n3Cc3ccco3)c(=O)n2c1	> 100 µM

----------
System: M. tuberculosis H37Rv growth inhibition, 7H9 media
test.description: M. tuberculosis growth inhibition, HTS (AID 449762);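 further: bacterial growth assessed after seven days of incubation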
condition.context: measured here: IC90 growth inhibition
Inconclusive results are not listed.

smiles.str	unit.name	sign.qualifier	IC90
CCOc1ccc(N2CCc3c(C)nc(SC)nc32)cc1	µM	>	100
Cc1ccc(C(=O)O/N=C(\N)c2ccc(Br)cc2)cc1C	µM	>	100
Cc1cc(-n2c(C)cc(C(=O)COc3ccc4ccc(=O)oc4c3)c2C)no1	µM	>	100
COc1ccc(C=C2C=C(C(C)(C)C)C(=O)C(C(C)(C)C)=C2)cc1OC	µM	=	5.15
CC1(C)CC(=O)c2c(O)cc(OCc3ccc(Br)cc3)cc2O1	µM	=	67.3
C/C(=N/Nc1cc(-c2ccccc2)nc(-c2ccccc2)n1)c1ccc(O)cc1	µM	=	13.8
CCOC(=O)N1CCc2c(sc(NC(=O)c3ccc(Cl)s3)c2C(N)=O)C1	µM	=	20.5
Cc1c(C(=O)N(C)C)sc2nc(-c3ccccn3)[nH]c(=O)c12	µM	=	16.9
O=C(CNC(=O)c1ccc(Cl)cc1)c1ccc(Cl)cc1	µM	>	100

----------
System: M. tuberculosis H37Rv growth inhibition, 7H9 media
test.description: M. tuberculosis growth inhibition, HTS (AID 449762);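 further: bacterial growth assessed after seven days of incubation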
condition.context: measured here: IC90 growth inhibition
Records with an inconclusive call do not appear.
Hi! Just check whether IC90 is below 10 µM. Below gives condition met, equal or above gives condition not met.

compound	measurement.target	class.label
O=C1C(c2ccccc2)=[N+]([O-])c2ccccc21	M. tuberculosis H37Rv growth inhibition, 7H9 media	condition not met
COc1ccc(N=N/C(=C\O)C(=O)c2cccs2)cc1	M. tuberculosis H37Rv growth inhibition, 7H9 media	condition not met
O=C(Nc1nc2nc(-c3ccccc3)cc(=O)n2[nH]1)c1ccccc1	M. tuberculosis H37Rv growth inhibition, 7H9 media	condition not met
COc1cccc(-c2cc3nc4c(c(NCC(C)(C)CN(C)C)n3n2)CCCC4)c1	M. tuberculosis H37Rv growth inhibition, 7H9 media	condition not met
C1=C(c2c[nH]c3ccccc23)CCNC1	M. tuberculosis H37Rv growth inhibition, 7H9 media	condition not met
CCCn1c(N2CCN(Cc3ccc(Cl)cc3)CC2)nc2ccccc21	M. tuberculosis H37Rv growth inhibition, 7H9 media	condition not met
O=C(NC1CCN(Cc2ccccc2)CC1)c1cccc(S(=O)(=O)Nc2ccc(SC(F)F)cc2)c1	M. tuberculosis H37Rv growth inhibition, 7H9 media	condition not met
Cc1ccc(-n2cc(CN(C)Cc3nccn3C)c(-c3cccc(C)c3)n2)cc1	M. tuberculosis H37Rv growth inhibition, 7H9 media	condition not met
O=C(OCCN1C(=O)c2ccccc2C1=O)c1cc2ccccc2o1	M. tuberculosis H37Rv growth inhibition, 7H9 media	condition not met
C=CC[N@@+]12CC[C@]34c5ccccc5N5/C=C6\C7N(/C=C(\C53)[C@@H](C[C@@H]41)/C(=C/CO)C2)c1ccccc1[C@@]71CC[N@@+]2(CC=C)C/C(=C\CO)[C@@H]6C[C@@H]12 (stereo not given in full)	M. tuberculosis H37Rv growth inhibition, 7H9 media	condition not met
Nc1ccc(Oc2ccc(F)cc2)nc1	M. tuberculosis H37Rv growth inhibition, 7H9 media	condition not met
O=C(O)c1ccccc1C(=O)NNc1ccc(Cl)cc1Cl	M. tuberculosis H37Rv growth inhibition, 7H9 media	condition not met
O=C1Nc2ccc(Br)cc2/C1=C/C(=O)c1ccc2c(c1)OCO2	M. tuberculosis H37Rv growth inhibition, 7H9 media	condition not met
Cc1ccc2[nH]c3c(c2c1)CN(C(=O)CN1CCN(c2ccccn2)CC1)CC3	M. tuberculosis H37Rv growth inhibition, 7H9 media	condition not met
Cc1cccc(CNc2ncnc3ccc(-c4ccc5c(c4)OCCO5)cc23)c1	M. tuberculosis H37Rv growth inhibition, 7H9 media	condition met
C[C@]12CC[C@@H]3c4ccc(O)cc4CC[C@H]3[C@@H]1CC[C@@H]2OC(=O)CCC1CCCC1	M. tuberculosis H37Rv growth inhibition, 7H9 media	condition not met
CC(=O)Nc1sc2c(c1-c1nc3ccccc3s1)CCN(C(C)C)C2	M. tuberculosis H37Rv growth inhibition, 7H9 media	condition met
COc1ccc(C(=O)OCC(=O)c2ccc(Br)s2)c(OC)c1	M. tuberculosis H37Rv growth inhibition, 7H9 media	condition not met
Oc1ccccc1-c1nnc(COc2ccccc2)o1	M. tuberculosis H37Rv growth inhibition, 7H9 media	condition not met
COC(=O)c1ccc(NC(=O)CSc2nc3ccc(N4C(=O)C5C6C=CC(C6)C5C4=O)cc3s2)cc1 (stereo not given)	M. tuberculosis H37Rv growth inhibition, 7H9 media	condition met
CCc1ccc(-c2csc(-c3c[nH]c4ccccc34)n2)cc1	M. tuberculosis H37Rv growth inhibition, 7H9 media	condition not met
Brc1ccc(N/N=C(/N=Nc2nn[nH]n2)c2ccccc2)cc1	M. tuberculosis H37Rv growth inhibition, 7H9 media	condition not met
O=C(CCl)Nc1cccn2ncnc12	M. tuberculosis H37Rv growth inhibition, 7H9 media	condition met
Cc1ccc(NC(=O)c2cnc(SCC(=O)NCC3CCCO3)n(C)c2=O)cc1C (stereo not given)	M. tuberculosis H37Rv growth inhibition, 7H9 media	condition not met
COc1ccc(N(CC(=O)Nc2ccccc2C(N)=O)S(=O)(=O)c2ccc(C)c([N+](=O)[O-])c2)cc1	M. tuberculosis H37Rv growth inhibition, 7H9 media	condition not met
O=C(Nc1nnc(-c2ccccc2Cl)o1)c1nc2ccccc2s1	M. tuberculosis H37Rv growth inhibition, 7H9 media	condition met
CCCCCC(=O)N/N=C(\C)c1ccccn1	M. tuberculosis H37Rv growth inhibition, 7H9 media	condition not met
C=C(C)CSc1cc(C)c(C#N)c2nc3ccccc3n12	M. tuberculosis H37Rv growth inhibition, 7H9 media	condition not met
Cc1ccccc1-n1sc2cc(F)ccc2c1=O	M. tuberculosis H37Rv growth inhibition, 7H9 media	condition not met
COc1ccccc1NC(=O)c1ccc(NC(=O)CSc2nnnn2C)cc1	M. tuberculosis H37Rv growth inhibition, 7H9 media	condition not met
